Cited source: patent US20250281611A1

// reported MFI HisTag FITC for each item listed
Target entity: T1, CD19 (UniProt P15391 20-556, limits assumed)
T1 construct: whole, on cells; also called CD19 on JeKo-1
T1 sequence (looked up): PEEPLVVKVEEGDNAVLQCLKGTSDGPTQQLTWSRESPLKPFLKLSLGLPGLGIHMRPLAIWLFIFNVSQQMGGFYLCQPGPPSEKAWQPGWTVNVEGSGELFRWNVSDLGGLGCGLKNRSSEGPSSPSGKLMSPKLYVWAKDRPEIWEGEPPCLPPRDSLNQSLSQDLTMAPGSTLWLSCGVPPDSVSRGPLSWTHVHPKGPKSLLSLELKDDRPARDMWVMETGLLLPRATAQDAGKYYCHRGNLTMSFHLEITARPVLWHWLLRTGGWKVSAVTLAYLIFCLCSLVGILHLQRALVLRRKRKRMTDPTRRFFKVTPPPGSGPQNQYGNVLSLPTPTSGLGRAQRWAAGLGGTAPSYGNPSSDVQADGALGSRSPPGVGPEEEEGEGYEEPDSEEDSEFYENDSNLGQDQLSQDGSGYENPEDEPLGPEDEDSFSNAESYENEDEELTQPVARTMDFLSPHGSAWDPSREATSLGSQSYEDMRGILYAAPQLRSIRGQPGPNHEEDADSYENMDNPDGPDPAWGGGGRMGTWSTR
Experiment summary: flow cytometry, JeKo-1 cells, bridge at saturating conc., anti-His-FITC detection
API doc: respond with a numeric literal and nothing else, no unit.

Known MFI HisTag FITC results, listed for orientation:
[[record]]
binder = "CD19 BRIDGE variant B9 (Fab, V domains shown) VH: EVQLVESGGGLVKPGGSLKLSCAASGYTFTSYVMHWVRQAPGKGLEWIGYINPYNDGTKYNEKFQGRVTISSDKSISTAYMELSSLRSEDTAMYYCARGTYYYGTRVFDYWGQGTLVTVSS VL: DIVMTQSPATLSLSPGERATLSCRSSKSLQNVNGNTYLYWFQQKPGQSPQLLIYRMSNLNSGVPDRFSGSGSGTEFTLTISSLEPEDFAVYYCMQHLEYPITFGAGTKLEIKR"
quantitative_result = 3

[[record]]
binder = "CD19 BRIDGE variant B26 (Fab, V domains shown) VH: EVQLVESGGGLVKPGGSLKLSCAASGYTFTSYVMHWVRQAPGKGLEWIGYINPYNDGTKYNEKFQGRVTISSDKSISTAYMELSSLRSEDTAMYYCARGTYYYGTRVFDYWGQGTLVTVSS VL: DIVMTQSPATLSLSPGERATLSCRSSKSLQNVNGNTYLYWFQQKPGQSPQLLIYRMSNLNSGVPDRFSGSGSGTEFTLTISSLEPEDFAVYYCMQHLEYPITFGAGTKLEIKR"
quantitative_result = 2.36


Would you kindly look at the next entry?
[ask] I'd like to know its MFI HisTag FITC. The binder in question is CD19 BRIDGE variant B20 (Fab, V domains shown) VH: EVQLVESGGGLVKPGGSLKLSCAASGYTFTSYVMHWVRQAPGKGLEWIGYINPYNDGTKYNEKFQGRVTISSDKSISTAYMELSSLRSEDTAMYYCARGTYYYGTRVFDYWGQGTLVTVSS VL: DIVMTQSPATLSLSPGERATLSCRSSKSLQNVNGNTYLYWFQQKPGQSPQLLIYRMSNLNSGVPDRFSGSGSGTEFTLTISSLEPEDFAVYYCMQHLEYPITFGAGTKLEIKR
[reply] 2.61
